- assay-target: Thrombin (Homo sapiens)
- test-method-notes: Coagulation inhibition assay, thrombin (fibrinogen clotting end point)
- Assay type: biochemical
- condition-description: 40 μM peptide
Ends that are not written are not given here.
quantity: inhibition at 40 µM (%)

Consider the following illustrative entries.
Q: Supply reported inhibition at 40 µM belonging to this sequence: AGRSLNPNRVTFKANRPFLVFI [Peptide 7]
Ans: 50

Q: Supply reported inhibition at 40 µM belonging to this sequence: AGRSLNPNRTIVRFNRPFLLII [Peptide 11]
Ans: 81

Q: Supply reported inhibition at 40 µM belonging to this sequence: RVTFKANRPFLVFIREVPLNTIIFLGRVANP [Peptide 21]
Ans: 97

(I) AGRSLNPNRVTFKANRPFLVFIREVPLNTIIFLGRVANP [Peptide 27]
(II) IVRFNRPFLLII [Peptide 3]
Q: Between item I and item II , which reported inhibition at 40 µM is smaller? In your reply, give the label of the chosen option.
Ans: II
(II: 50%, I: 97%)

----------
- assay-target: Cathepsin G (Homo sapiens)
- Construct: purchased Elastin Products Company (EPC) SG-45
- test-method-notes: Cathepsin G assay (Suc-Ala-Ala-Pro-Phe-pNA, 410 nm)
- Format: biochemical
- condition-description: 200 μM peptide (head of Table IX)
Ends that are not written are not given here.
quantity: inhibition at 200 µM (%)

Consider the following illustrative entries.
Q: Supply reported inhibition at 200 µM belonging to this sequence: AGRSLNPNRVTFKANRPFLVFI [Peptide 7]
Ans: 28

Q: Supply reported inhibition at 200 µM belonging to this sequence: AGRSLNPNRVTFKANRPFLVFIREVPLNTIIFLGRVANP [Peptide 27]
Ans: 52

Q: Supply reported inhibition at 200 µM belonging to this sequence: RVTFKANRPFLVFIREVPLNTIIFLGRVANP [Peptide 21]
Ans: 38

Q: Supply reported inhibition at 200 µM belonging to this sequence: FLEAIPMSIPPEVKFNKPFVFLI [Peptide 4]
Ans: 14

Q: Supply reported inhibition at 200 µM belonging to this sequence: IVRFNRPFLLII [Peptide 3]
Ans: 32

(P) AGRSLNPNRTIVRFNRPFLLII [Peptide 11]
(Q) PNRVTFKANRPFLVFI [Peptide 2]
Q: Select one: P or Q . Criterion: greater recorded inhibition at 200 µM. In your reply, give the label of the chosen option.
Ans: P
(P: 40%, Q: 13%)

----------
- assay-target: tPA (Homo sapiens, UniProt P00750)
- Construct: Enzyme tPA, 2 chain activity standard; purchased American Diagnostica, Inc. 116
- Sequence (P00750 311-562 limits assumed): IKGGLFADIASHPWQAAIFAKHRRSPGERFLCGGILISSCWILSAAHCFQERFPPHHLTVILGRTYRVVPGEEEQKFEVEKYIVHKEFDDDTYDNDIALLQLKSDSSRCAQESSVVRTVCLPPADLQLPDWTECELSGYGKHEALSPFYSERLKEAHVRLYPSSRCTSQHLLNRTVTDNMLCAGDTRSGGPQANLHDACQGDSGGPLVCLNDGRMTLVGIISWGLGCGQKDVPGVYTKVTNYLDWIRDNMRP
- Sequence (P00750 36-310 partner limits assumed): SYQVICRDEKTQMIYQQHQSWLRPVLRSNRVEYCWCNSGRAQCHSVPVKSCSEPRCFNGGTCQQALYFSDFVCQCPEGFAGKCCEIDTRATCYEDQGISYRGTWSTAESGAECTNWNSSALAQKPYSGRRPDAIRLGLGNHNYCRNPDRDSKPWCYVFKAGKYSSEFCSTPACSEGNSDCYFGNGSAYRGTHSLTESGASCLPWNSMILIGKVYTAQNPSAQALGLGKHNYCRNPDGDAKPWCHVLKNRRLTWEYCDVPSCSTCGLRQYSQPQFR
- test-method-notes: Tissue plasminogen activator (tPA) assay (S2288)
- Format: biochemical
- condition-description: 10 μM peptide
Ends that are not written are not given here.
quantity: inhibition at 10 µM (%)

Q: Supply reported inhibition at 10 µM belonging to this sequence: RPFLVFILPNIFLRVANP [Peptide 44]
Ans: 55

Q: Supply reported inhibition at 10 µM belonging to this sequence: RPFLVFLPNILRVANP [Peptide 46]
Ans: 0

Q: Supply reported inhibition at 10 µM belonging to this sequence: PFLVFILPNIFLGRVAN [Peptide 43]
Ans: 7

Q: Supply reported inhibition at 10 µM belonging to this sequence: RPFLVFILPGIFLGRVANP [Peptide 38]
Ans: 59

Q: Supply reported inhibition at 10 µM belonging to this sequence: RPFLVFILPNIFLGRVANP [Peptide 39]
Ans: 55

Q: Supply reported inhibition at 10 µM belonging to this sequence: RPFLVFIRPGDIFLGRVANP [Peptide 40]
Ans: 39

(1) RPFLVFIRPNDFLGRVANP [Peptide 41]
(2) RPFLVFILPNIFLGRVAN [Peptide 42]
Q: Select one: 1 or 2 . Criterion: greater recorded inhibition at 10 µM. In your reply, give the label of the chosen option.
Ans: 2
(2: 44%, 1: 8%)

----------
- assay-target: Cathepsin G (Homo sapiens)
- Construct: purchased Elastin Products Company (EPC) SG-45
- Sequence (P08311 21-255): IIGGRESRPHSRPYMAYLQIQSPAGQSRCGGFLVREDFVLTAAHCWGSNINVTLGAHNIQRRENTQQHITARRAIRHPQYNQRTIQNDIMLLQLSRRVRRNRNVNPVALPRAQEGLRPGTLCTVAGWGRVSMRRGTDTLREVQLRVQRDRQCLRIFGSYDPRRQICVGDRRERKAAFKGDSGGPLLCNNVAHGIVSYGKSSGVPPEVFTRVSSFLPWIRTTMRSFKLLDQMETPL
- test-method-notes: Cathepsin G assay (Suc-Ala-Ala-Pro-Phe-pNA, 410 nm)
- Assay type: biochemical
- condition-description: 200 μM peptide (head of Table IX)
Ends that are not written are not given here.
quantity: Cathepsin G Inhibition (%)

Consider the following illustrative entries.
Q: Supply reported Cathepsin G Inhibition belonging to this sequence: FLEAIPMSIPPRVTFKANRPFLVFIREVPLNTIIFLGRVANP [Peptide 28]
Ans: 16

Q: Supply reported Cathepsin G Inhibition belonging to this sequence: TLLSALVETRTIVRFNRPFLLIIVPTDTQNIFFLSKVTNPSKPR [Peptide 30]
Ans: 38

Q: Supply reported Cathepsin G Inhibition belonging to this sequence: IAGRSLNPNRVTLRYNKPFILVLFETPGNSLVFLGRISNPATK [Peptide 33]
Ans: 35

Q: Supply reported Cathepsin G Inhibition belonging to this sequence: IAGRSLNPNIVRFNRPFLLIIVPTDTQNIFFLSKVTNPSKPR [Peptide 31]
Ans: 54

Q: Supply reported Cathepsin G Inhibition belonging to this sequence: FLEAIPMSIPPEVKFNKPFVFLLIEQNTKSPLFLGKVVNPTQK [Peptide 24]
Ans: 0

Q: Supply reported Cathepsin G Inhibition belonging to this sequence: TLLSALVETPPEVKFKNPFVFLI [Peptide 6]
Ans: 0

Q: Supply reported Cathepsin G Inhibition belonging to this sequence: IAGRSLNPNRVTVKFNKPFVFLLIEQNTKSPLFLGKVVNPTQK [Peptide 25]
Ans: 35

Q: Supply reported Cathepsin G Inhibition belonging to this sequence: VKFNKPFVFLLIEQNTKSPLFLGKVVNPTQK [Peptide 20]
Ans: 0

Q: Supply reported Cathepsin G Inhibition belonging to this sequence: LRYNKPFILVLFETPGNSLVFLGRISNPATK [Peptide 23]
Ans: 0

Q: Supply reported Cathepsin G Inhibition belonging to this sequence: IAGRSLNPNPPEVKFKNPFVFLI [Peptide 5]
Ans: 0

(I) TLLSALVETRTIVRFNRPFLLII [Peptide 10]
(II) FLEAIPMSIPPTFKANRPFLVFI [Peptide 8]
(III) TLLSALVETRTIVKFNKPFVFLLIEQNTKSPLFLGKVVNPTQK [Peptide 26]
Q: Sort by Cathepsin G Inhibition, descending. Quick reminder: the answer is the labels in the order asked.
Ans: I, II, III
(I: 65%, II: 44%, III: 0%)

(a) FLEAIPMSIRTIVRFNRPFLLII [Peptide 12]
(b) FLEAIPMSIPPIVRFNRPFLLIIVPTDTQNIFFLSKVTNPSKPR [Peptide 32]
Q: Select one: a or b . Criterion: greater recorded Cathepsin G Inhibition. In your reply, give the label of the chosen option.
Ans: a
(a: 51%, b: 0%)

----------
- assay-target: Thrombin (Homo sapiens, UniProt P00734)
- test-method-notes: Coagulation inhibition assay, thrombin (fibrinogen clotting end point)
- Type: biochemical
- condition-description: 40 μM peptide
Ends that are not written are not given here.
quantity: Thrombin inhibition (%)

Q: Supply reported Thrombin inhibition belonging to this sequence: TLLSALVETRVTFKANRPFLVFI [Peptide 9]
Ans: 32

Q: Supply reported Thrombin inhibition belonging to this sequence: IVRFNRPFLLIIVPTDTQNIFFLSKVTNPSKPR [Peptide 22]
Ans: 90

(I) VKFNKPFVFLLIEQNTKSPLFLGKVVNPTQK [Peptide 20]
(II) FLEAIPMSIPPTFKANRPFLVFI [Peptide 8]
Q: Select one: I or II . Criterion: greater recorded Thrombin inhibition. In your reply, give the label of the chosen option.
Ans: I

----------
- assay-target: HUMAN SPUTUM ELASTASE (Homo sapiens, UniProt P08246)
- Construct: HUMAN SPUTUM ELASTASE; purchased Elastin Products Company SE563; host or cells: human sputum (from the product name)
- Sequence (P08246 30-267): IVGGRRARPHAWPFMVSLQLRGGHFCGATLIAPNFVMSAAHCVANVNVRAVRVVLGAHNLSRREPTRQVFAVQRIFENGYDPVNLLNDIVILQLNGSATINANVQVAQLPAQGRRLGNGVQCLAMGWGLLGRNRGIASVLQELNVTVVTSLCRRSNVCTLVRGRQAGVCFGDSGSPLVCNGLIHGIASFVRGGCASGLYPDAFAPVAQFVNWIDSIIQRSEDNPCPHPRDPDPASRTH
- test-method-notes: Elastase assay (MeO-Suc-Ala-Pro-Val-pNA)
- Assay type: biochemical
- condition-description: 200 μM peptide
- Procedure: Enzyme used is "HUMAN SPUTUM ELASTASE®" which is an enzyme which is the target protease for α1 antitrypsin from Elastin Products Company, Catalog No. SE563, lot 85071, 875 units/mg as determined by supplier with N-Suc-Ala-Ala-Ala-pNA; prepared at 0.2 mg/mL in 0.1M Tris·HCl, pH 8.8 at 37 degrees C. An amount of enzyme is used to give approximately 0.1 change in Absorbance/min; which in this assay was 1 μg. The substrate is MeO-Suc-Ala-Pro-Val-pNA, Sigma Catalog No. M-4765. […]
Ends that are not written are not given here.
quantity: Elastase Inhibition (%)

Consider the following illustrative entries.
Q: Report Elastase Inhibition from HUMAN SPUTUM ELASTASE (Homo sapiens, UniProt P08246) testing of IAGRSLNPNIVRFNRPFLLIIVPTDTQNIFFLSKVTNPSKPR [Peptide 31]
Ans: 0

Q: Report Elastase Inhibition from HUMAN SPUTUM ELASTASE (Homo sapiens, UniProt P08246) testing of IAGRSLNPNRVTVKFNKPFVFLLIEQNTKSPLFLGKVVNPTQK [Peptide 25]
Ans: 0

Q: Report Elastase Inhibition from HUMAN SPUTUM ELASTASE (Homo sapiens, UniProt P08246) testing of LRYNKPFILVLFETPGNSLVFLGRISNPATK [Peptide 23]
Ans: 0

Q: Report Elastase Inhibition from HUMAN SPUTUM ELASTASE (Homo sapiens, UniProt P08246) testing of FLEAIPMSIPPIVRFNRPFLLIIVPTDTQNIFFLSKVTNPSKPR [Peptide 32]
Ans: 0

Q: Report Elastase Inhibition from HUMAN SPUTUM ELASTASE (Homo sapiens, UniProt P08246) testing of IVRFNRPFLLIIVPTDTQNIFFLSKVTNPSKPR [Peptide 22]
Ans: 0

Q: Report Elastase Inhibition from HUMAN SPUTUM ELASTASE (Homo sapiens, UniProt P08246) testing of FLEAIPMSIPPIVRFNRPFLLII [Peptide 19]
Ans: 100

Q: Report Elastase Inhibition from HUMAN SPUTUM ELASTASE (Homo sapiens, UniProt P08246) testing of VKFNKPFVFLLIEQNTKSPLFLGKVVNPTQK [Peptide 20]
Ans: 0

Q: Report Elastase Inhibition from HUMAN SPUTUM ELASTASE (Homo sapiens, UniProt P08246) testing of FLEAIPMSIPPRVTFKANRPFLVFIREVPLNTIIFLGRVANP [Peptide 28]
Ans: 0

(a) FLEAIPMSIPPTFKANRPFLVFI [Peptide 8]
(b) IAGRSLNPNPPEVKFKNPFVFLI [Peptide 5]
(c) FLEAIPMSIPPEVKFNKPFVFLLIEQNTKSPLFLGKVVNPTQK [Peptide 24]
(d) TLLSALVETPPEVKFKNPFVFLI [Peptide 6]
Q: Form: Sort by [Elastase Inhibition] Order [ ascending ] Quick reminder: the answer is the labels in the order asked.
Ans: b, d, c, a
(b: 0%, d: 17%, c: 26%, a: 77%)
